tested system: Pyruvate kinase PKM (Homo sapiens)
experimental protocol: Confirmation Concentration-Response Assay for Activators of Human Muscle isoform 2 Pyruvate Kinase
experimental parameters: purified hPK-M2, Kinase-Glo ATP luminescence, 1 h; series mostly up to 57.5 µM
Inconclusive results are not listed. Activity calls are given as the source filed them. Calls follow the shape of the dose curve; as a rule, active = well fitted activation curve with a large enough effect; inconclusive = small, poorly fitted or top-dose-only effect; inactive = no such curve, though single readings can be large or run the other way.
The categories you may choose from are yes (active), no (inactive)

Please review the following examples before continuing.
O=S(=O)(NCCNS(=O)(=O)c1c(F)cccc1F)c1ccc2c(c1)OCCO2 :: yes
CC1(C)CCc2cc(S(=O)(=O)N3CCN(S(=O)(=O)c4c(F)cccc4F)CC3)ccc2O1 :: yes
Cc1cc2[nH]c3c(=O)n(Cc4ccccc4F)ncc3c2s1 :: no
COc1ccc(S(=O)(=O)N2CCN(S(=O)(=O)c3ccc4c(c3)OCCO4)CC2)cc1 :: yes

Let us examine a further case.
Req: Look up the recorded call for O=S(=O)(NC1CCN(S(=O)(=O)c2c(F)cccc2F)CC1)c1ccc2c(c1)OCCO2 in this test.
Resp: yes

* * *

tested system: Pyruvate kinase PKM (Homo sapiens)
experimental protocol: Confirmation Concentration-Response Assay for Activators of Human Muscle isoform 2 Pyruvate Kinase
experimental parameters: purified hPK-M2, Kinase-Glo ATP luminescence, 1 h; series mostly up to 57.5 µM
Inconclusive results are not listed. Active and inactive are the calls of the source. The call rests on the fitted dose curve; in most records, active means well fitted activation curve with a large enough effect; inconclusive means small, poorly fitted or top-dose-only effect; inactive means no such curve, though single readings can be large or run the other way.
Valid outcomes are listed here; reply with one: active, inactive

O=S(=O)(c1ccc2c(c1)OCO2)N1CCN(S(=O)(=O)c2c(F)cccc2F)CC1 :: active

Req: I'd appreciate the recorded outcome for Cc1cc2c(s1)c1cnn(Cc3c(F)cccc3F)c(=O)c1n2C from this test.
Resp: active

Req: Recorded test outcome, item COc1ccc(S(=O)(=O)N2CCN(S(=O)(=O)c3ccc(OC)cc3)CC2)cc1
Resp: active

Req: Outcome logged for COc1ccc(Cn2ncc3c4sc(C)cc4n(C)c3c2=O)cc1 in this assay:
Resp: active

Req: Please let me know the test result on file for C[C@H]1CN(S(=O)(=O)c2c(F)cccc2F)CCN1S(=O)(=O)c1ccc2c(c1)OCCO2 .
Resp: active

Req: Returns: the outcome recorded for Cc1cc(C)nc(SCCc2ccncc2)n1 in this assay.
Resp: inactive

Req: How was CC(O)c1cc2c(s1)c1cnn(Cc3ccccc3F)c(=O)c1n2C (configuration not stated) classified in this test?
Resp: active

Req: What call does the record list for O=S(=O)(c1c(F)cccc1F)C1CCN(S(=O)(=O)c2ccc3c(c2)OCCO3)CC1 ?
Resp: active

Req: Dear colleague, could you share the recorded outcome for O=C(CN1C(=O)N/C(=C\c2cccn2-c2cccc(C(=O)O)c2)C1=O)Nc1ccccc1F when you have a moment?
Resp: inactive

Req: Status in this test for CCc1cc2c(s1)c1cnn(Cc3ccccc3F)c(=O)c1n2C ?
Resp: active

Req: I'd appreciate the recorded outcome for CCn1c2cc(C)sc2c2cnn(Cc3ccccc3F)c(=O)c21 from this test.
Resp: active

Req: State the result this test recorded for CCOC(=O)CSc1nc2cc(OC)ccc2cc1C#N .
Resp: inactive

Req: Please share the test call associated with Cc1ccc(Cn2ncc3c4sc(C)cc4n(C)c3c2=O)c(C)c1 .
Resp: active

Req: Query: recorded result category for O=S(=O)(NC1CCN(S(=O)(=O)c2c(F)cccc2F)C1)c1ccc2c(c1)OCCO2 (configuration not stated) in this test
Resp: active

Req: Can you look up the reported call for Cc1sc2ncnc(OCC(=O)N3CCN(S(=O)(=O)c4ccc(Cl)cc4)CC3)c2c1C for me?
Resp: inactive

Req: Per the records of this test, what outcome belongs to Cc1cc2c(s1)c1cnn(Cc3cccc(Cn4ncc5c6sc(C)cc6n(C)c5c4=O)c3F)c(=O)c1n2C ?
Resp: active

Req: Please state the recorded outcome for this molecule: O=S(=O)(c1ccc2ccccc2c1)N1CCN(S(=O)(=O)c2c(F)cccc2F)CC1
Resp: active

Req: What was the test verdict on O=C1CN(S(=O)(=O)c2c(F)cccc2F)CCN1S(=O)(=O)c1ccc2c(c1)OCCO2 ?
Resp: active

Req: Tell me the assay call for Cc1ccc(Cn2ncc3c4sc(C)cc4n(C)c3c2=O)cc1 please.
Resp: active

Req: Each molecule tested received a call. Report the one for C[C@@H]1CN(S(=O)(=O)c2ccc3c(c2)OCCO3)CCN1S(=O)(=O)c1c(F)cccc1F .
Resp: active

Req: Identify the outcome logged in this assay for the molecule shown: Cc1cc2c(s1)c1cnn(Cc3ccc(C)c(F)c3F)c(=O)c1n2C
Resp: active

Req: For this molecule, state the assay outcome: Cc1cc2c(s1)c1c(C)nn(Cc3ccccc3F)c(=O)c1n2C
Resp: active

Req: Just curious, what result did Cn1c2ccsc2c2ncn(Cc3ccccc3F)c(=O)c21 get here?
Resp: active

Req: Entry Cc1cc2c(s1)c1cnn(Cc3ccc(C(C)C)cc3)c(=O)c1n2C : call = ?
Resp: active

Req: What classification did O=S(=O)(NCC1CN(S(=O)(=O)c2ccc3c(c2)OCCO3)C1)c1c(F)cccc1F end up with in this test?
Resp: active

Req: // outcome(item) with item = C[C@@H]1CN(S(=O)(=O)c2c(F)cccc2F)CCN1S(=O)(=O)c1ccc2c(c1)OCCO2
Resp: active
